Source of measurements: patent US8900880B2

Tested on: IgG antibodies in RA and NHS sera
experiment: ELISA with differently citrullinated EBNA-2(338-358) peptides (Example 6)
Assay type: binding, human
experimentalConditions: 24 RA patients; positive = greater than 97.5th percentile of normal control group
Where no end group is shown, it is not given here. [ ]: non-standard residue; d: D form. Cit = NC(=O)NCCC[C@H](N)C(=O)O
experimentalReadout: RA positive sera

Past entries and their recorded results:
GQSRGQSCitGCitGCitGRGRGRGKG (GQSRGQS[Cit]G[Cit]G[Cit]GRGRGRGKG) [[Cit345, Cit^347, Cit^349]EBNA2(338-358)] ... 9/24
GQSRGQSRGCitGRGRGRGRGKG (GQSRGQSRG[Cit]GRGRGRGRGKG) [[Cit^347]EBNA2(338-358)] ... 6/24
GQSRGQSCitGRGCitGCitGRGRGKG (GQSRGQS[Cit]GRG[Cit]G[Cit]GRGRGKG) ... 8/24
GQSRGQSRGRGCitGCitGRGRGKG (GQSRGQSRGRG[Cit]G[Cit]GRGRGKG) [[Cit^349, Cit^351]EBNA2(338-358)] ... 15/24

Query: Look up RA positive sera for this substance: GQSRGQSCitGRGRGRGRGCitGKG (GQSRGQS[Cit]GRGRGRGRG[Cit]GKG) [[Cit^345, Cit^355]EBNA2(338-358)]
Result: 11/24

Query: Returns the measured RA positive sera for the input substance. Input: GQSCitGQSRGRGRGCitGRGRGKG (GQS[Cit]GQSRGRGRG[Cit]GRGRGKG; not fully specified) [[Cit^341, Cit^349]EBNA2(338-358)]
Result: 6/24

Query: Return reported RA positive sera; argument: GQSRGQSCitGRGRGRGCitGRGKG (GQSRGQS[Cit]GRGRGRG[Cit]GRGKG) [[Cit^345, Cit^353]EBNA2(338-358)]
Result: 6/24

Query: Consider the substance GQSRGQSRGCitGRGCitGRGRGKG (GQSRGQSRG[Cit]GRG[Cit]GRGRGKG; not fully specified) [[Cit^347, Cit^349]EBNA2(338-358)] and give its measured RA positive sera.
Result: 5/24

###

System: IgG antibodies in RA and NHS sera
experiment: ELISA with differently citrullinated EBNA-2(338-358) peptides (Example 6)
Format: binding, human
experimentalConditions: 24 RA patients; positive = greater than 97.5th percentile of normal control group
Where no end group is shown, it is not given here. [ ]: non-standard residue; d: D form. Cit = NC(=O)NCCC[C@H](N)C(=O)O
Below, each of the substances is paired with its reported RA positive sera value.

Field: example entries. Status: answers known.
GQSRGQSCitGRGCitGRGRGRGKG (GQSRGQS[Cit]GRG[Cit]GRGRGRGKG) [[Cit^345, Cit^349]EBNA2(338-358)] ... 15/24
GQSRGQSCitGRGCitGRGCitGRGKG (GQSRGQS[Cit]GRG[Cit]GRG[Cit]GRGKG) ... 10/24
GQSRGQSRGRGRGCitGCitGRGKG (GQSRGQSRGRGRG[Cit]G[Cit]GRGKG; not fully specified) [[Cit^349, Cit^353]EBNA2(338-358)] ... 12/24
GQSRGQSRGRGRGRGCitGRGKG (GQSRGQSRGRGRGRG[Cit]GRGKG) [[Cit^353]EBNA2(338-358)] ... 6/24
GQSRGQSCitGCitGRGRGRGRGKG (GQSRGQS[Cit]G[Cit]GRGRGRGRGKG) [[Cit^345, Cit^347]EBNA2(338-358)] ... 10/24

Query: Write down the reported RA positive sera of GQSCitGQSCitGRGRGRGRGRGKG (GQS[Cit]GQS[Cit]GRGRGRGRGRGKG) [[Cit^341, Cit^345]EBNA2(338-358)] , test system: IgG antibodies in RA and NHS sera.
Result: 12/24
